assay.info: in vivo
Design: species or system mice
experimental.context: BALB/c, mouse, in vivo, po, 32 mg/kg, twice daily for 2 d, 32 mg/kg oral; mouse plasma, simulated
assay.endpoint: Cmax (µg/mL)
Supply the numeric figure in µg/mL, leaving out any unit text.

Q: Field request: Cmax | item: Cn1cnc(Cn2c(=O)[nH]/c(=N\c3cc4cn(C)nc4cc3Cl)n(Cc3cc(F)c(F)cc3F)c2=O)n1
Ans: 79.7

----------
assay.info: in vivo
Parameters: species or system mice
experimental.context: BALB/c, mouse, in vivo, po, 16 mg/kg, once daily for 2 d, 16 mg/kg oral; mouse plasma, simulated; read-out: AUC0–48h
assay.endpoint: AUC(0-t) (µg·h/mL)
Quick note: give the figure in µg·h/mL, leave out the unit.

Q: AUC(0-t) lookup needed for Cn1cnc(Cn2c(=O)[nH]/c(=N\c3cc4cn(C)nc4cc3Cl)n(Cc3cc(F)c(F)cc3F)c2=O)n1 , thanks.
Ans: 475

----------
assay.info: in vivo
Parameters: species or system mice
experimental.context: BALB/c, mouse, in vivo, po, 64 mg/kg, thrice daily for 2 d, 64 mg/kg oral; mouse plasma, simulated
assay.endpoint: Cmax (µg/mL)
Field: numeric (µg/mL). Do not append units.

Q: Given the entry Cn1cnc(Cn2c(=O)[nH]/c(=N\c3cc4cn(C)nc4cc3Cl)n(Cc3cc(F)c(F)cc3F)c2=O)n1 , report its measured Cmax.
Ans: 232

----------
assay.info: in vivo
Parameters: species or system mice
experimental.context: BALB/c, mouse, in vivo, po, 64 mg/kg, once daily for 2 d, 64 mg/kg oral; mouse plasma, simulated
assay.endpoint: Cmax (µg/mL)
Return type: number; implicit unit µg/mL.

Q: Given Cn1cnc(Cn2c(=O)[nH]/c(=N\c3cc4cn(C)nc4cc3Cl)n(Cc3cc(F)c(F)cc3F)c2=O)n1 , state its recorded Cmax.
Ans: 160

----------
assay.info: in vivo
Design: species or system mice
experimental.context: BALB/c, mouse, in vivo, po, 16 mg/kg, twice daily for 2 d, 16 mg/kg oral; mouse plasma, simulated; read-out: AUC0–48h
assay.endpoint: AUC(0-t) (µg·h/mL)
# value in µg·h/mL; strip the unit string

Q: What measured AUC(0-t) goes with Cn1cnc(Cn2c(=O)[nH]/c(=N\c3cc4cn(C)nc4cc3Cl)n(Cc3cc(F)c(F)cc3F)c2=O)n1 ?
Ans: 941

----------
assay.info: in vivo
Parameters: species or system mice
experimental.context: BALB/c, mouse, in vivo, po, 16 mg/kg, thrice daily for 2 d, 16 mg/kg oral; mouse plasma, simulated
assay.endpoint: Cmax (ng/mL)
Your answer is read as ng/mL, so omit the unit and give the number.

Q: Report Cmax for Cn1cnc(Cn2c(=O)[nH]/c(=N\c3cc4cn(C)nc4cc3Cl)n(Cc3cc(F)c(F)cc3F)c2=O)n1 [ensitrelvir, ensitrelvir fumaric acid] please.
Ans: 47600

----------
assay.info: in vivo
Design: species or system mice
experimental.context: BALB/c, mouse, in vivo, po, 32 mg/kg, once daily for 2 d, 32 mg/kg oral; mouse plasma, simulated
assay.endpoint: Cmax (µg/mL)
The figure you give is taken to be in µg/mL; do not add the unit.

Q: Can you share its Cmax? I mean this compound: Cn1cnc(Cn2c(=O)[nH]/c(=N\c3cc4cn(C)nc4cc3Cl)n(Cc3cc(F)c(F)cc3F)c2=O)n1 [ensitrelvir, ensitrelvir fumaric acid]
Ans: 72.5
